System: K-562 leukemia
Test: NCI tumour cell line growth inhibition, 48 h
readout_kind: TGI

Requested field: TGI. Item: CN(C)CCCNC(=O)c1cc(NC(=O)c2cc(NC(=O)CCNS(=O)(=O)c3ccc4c(c3)C(=O)c3ccccc3C4=O)cn2C)cn1C > 100 µM

Requested field: TGI. Item: C#CCOc1cccc(Nc2ncnc3cc(NC(=O)CCl)ccc23)c1 4.69 µM

Requested field: TGI. Item: COc1cc2c(cc1OCCCC(=O)Nc1ccc3ccc4cccc5ccc1c3c45)N=C[C@@H]1CCCN1C2=O 14.1 µM

Requested field: TGI. Item: CC(C(O)c1ccccc1)C(O)(C(F)(F)F)C(F)(F)F (stereo unspecified) > 100 µM

Requested field: TGI. Item: C(=C\c1ccco1)/c1cccc(/C=C/c2ccco2)n1 > 50 µM

Requested field: TGI. Item: O=C1C[C@@H]2/C(=C(O)\C=C\c3ccccc3)C(=O)C=C[C@@H]2O1 > 100 µM

Requested field: TGI. Item: C/C(=N\NC(=S)NCCCNC(=S)N/N=C(\C)c1ccccn1)c1ccccn1 > 100 µM

Requested field: TGI. Item: COc1cc(Cc2nccc3cc(OC)c(OC)cc23)c(N=NN(C)C)cc1OC > 100 µM

Requested field: TGI. Item: COc1ccc(OCC(=O)O)c(C(=O)CCC(=O)O)c1 > 100 µM

Requested field: TGI. Item: COc1ccc(C2ON(c3cccc(C)n3)CC=C2C)cc1 (stereo unspecified) > 100 µM

Requested field: TGI. Item: Cc1ccc(Cl)cc1NC(=O)c1sc2nc3c(cc2c1N)C(=O)CCC3 > 100 µM

Requested field: TGI. Item: Cc1cc(=O)oc2c(CNC(Cc3ccccc3)C(=O)O)c(O)ccc12 (stereo unspecified) > 100 µM

Requested field: TGI. Item: Cc1cc(S(=O)(=O)Nc2nc3ccccc3c(=O)n2N)c(S)cc1Cl > 100 µM

Requested field: TGI. Item: CCN(CC)C(=O)C(C)n1cc(C)c(=O)[nH]c1=O (stereo unspecified) > 100 µM

Requested field: TGI. Item: O=c1/c(=C/c2ccc(-c3ccc(Cl)cc3Cl)o2)sc2n1[C@@H](c1ccc(Cl)cc1)C=C(c1cc(F)c(Cl)cc1Cl)N=2 > 100 µM

Requested field: TGI. Item: O=C1c2ccccc2-c2c1c1ccccc1c(=O)n2CCCn1ccnc1 4.64 µM

Requested field: TGI. Item: O=C(/C=C/c1ccc(C(F)(F)F)cc1)c1ccc(Nc2nc(NCCO)nc(Nc3ccc(Cl)cc3)n2)cc1 > 100 µM

Requested field: TGI. Item: Cc1cnc(C(=O)NNc2nc3sc4c(c3c(=O)n2C)C(C)CCC4)cn1 (stereo unspecified) > 100 µM

Requested field: TGI. Item: CC(=O)Nc1ccc(/C=C/C(=O)N2CC(CCl)c3c2cc(N)c2ccccc32)cc1 (stereo unspecified) 50 µM

Requested field: TGI. Item: BrC(c1cccc2ccccc12)c1cccc2ccccc12 > 100 µM

Requested field: TGI. Item: Oc1ccc2oc3ncc(Br)c(-c4ccccc4)c3c2c1 > 100 µM

====

System: UO-31 renal
Assay: NCI tumour cell line growth inhibition, 48 h
readout_kind: TGI (µM)
Your answer should be a plain number; it is taken to be in µM.

Requested field: TGI. Item: CN(C)c1ccc(/C=C/c2cc[n+](C)c(/C=C/c3ccc(N(C)C)cc3)c2)cc1 11.9

Requested field: TGI. Item: O=C(NC12CC3CC(CC(C3)C1)C2)C(=O)c1c[nH]c2ccccc12 36.6

Requested field: TGI. Item: C=C1C(=O)O[C@H]2[C@H]1CC/C(Cn1cc(-c3ccccc3C(F)(F)F)nn1)=C\CC[C@@]1(C)O[C@@H]21 2.61

====

Test system: SK-MEL-5 melanoma
Assay: NCI tumour cell line growth inhibition, 48 h; in the data active = GI50 below about 0.43 µM; inactive = the rest
Pick one and only one: t for active, f for inactive

In this assay, the call recorded for O=C1C(Cl)=C(NCc2ccco2)C(=O)c2ccccc21 was what? f

In this assay, the call recorded for COc1cc(C2CC(c3ccc(Nc4ccnc5cc(Cl)ccc45)cc3)=NN2c2ccc(Cl)cc2)cc(OC)c1OC (stereo not drawn) was what? f

In this assay, the call recorded for NCCCNCCCCNC(=O)C(O)NC(=O)CCCCCCN=C(N)N (stereo not drawn) was what? f

In this assay, the call recorded for COC(=O)CC[C@H](Cc1ccccc1)NC(=O)c1csc([C@@H](C[C@H](C(C)C)N(C)C(=O)[C@@H](NC(=O)[C@H]2CCCCN2C)C(C)C)OC(C)=O)n1 was what? t

In this assay, the call recorded for Cc1ccc(O)c(NC(=O)c2ccc(CNc3ccnc(C(F)(F)F)c3)cc2)c1 was what? f

In this assay, the call recorded for CC(C)=CC1=C2C3=C(C(=O)C4(O)Oc5c(C)c6c7c(c5OC24C)[C@@H](C)CC[C@@H]7[C@@H](C)C[C@H]6C=C(C)C)C(C)CCC3C(C)C1 (stereo partly drawn) was what? f

In this assay, the call recorded for CCCCCCCCCCCCC(O)[C@H]1CC[C@H](C(O)CCCCCC(=O)CCCCC2CC(C(C)=O)C(=O)O2)O1 (stereo partly drawn) was what? f

In this assay, the call recorded for CN(C)c1ccc(/C=C/c2cc[n+](C)c(/C=C/c3ccc(N(C)C)cc3)c2)cc1 was what? t

====

Tested on: T-47D breast
Assay: NCI tumour cell line growth inhibition, 48 h
Task for the reader: assign each of the following compounds its reported TGI.
Your answer should be a plain number; it is taken to be in µM.

Give T-47D breast TGI for O=C(/C=C/c1ccc(C(F)(F)F)cc1)c1ccc(Nc2nc(NCCO)nc(Nc3ccc(Cl)cc3)n2)cc1 26.6

Give T-47D breast TGI for CO/N=C(\C)c1cccc(Nc2c3ccccc3nc3occc23)c1 28.8

Give T-47D breast TGI for C=CC(Cl)(CBr)CCC(Br)C(C)(C)Cl (stereo not given) 39.6

Give T-47D breast TGI for Cc1cnc(C(=O)Nc2nc3ccc(S(=O)(=O)Nc4ccc(C5(C(F)(F)F)CC5)cc4)cc3[nH]2)cn1 17.2

====

System: SF-268 CNS
Assay: NCI tumour cell line growth inhibition, 48 h; in the data active = GI50 below about 0.43 µM; inactive = the rest
Pick one and only one: true for active, false for inactive

In this assay, the call recorded for Cc1cc(S(=O)(=O)Nc2nc3ccccc3c(=O)n2N)c(S)cc1Cl was what? false

In this assay, the call recorded for O=C(OC[C@H]1O[C@H](OC(=O)c2cc(O)c(O)c(OC(=O)c3cc(O)c(O)c(O)c3)c2)[C@H](OC(=O)c2cc(O)c(O)c(OC(=O)c3cc(O)c(O)c(O)c3)c2)[C@@H](OC(=O)c2cc(O)c(O)c(OC(=O)c3cc(O)c(O)c(O)c3)c2)[C@@H]1OC(=O)c1cc(O)c(O)c(OC(=O)c2cc(O)c(O)c(O)c2)c1)c1cc(O)c(O)c(OC(=O)c2cc(O)c(O)c(O)c2)c1 was what? false

In this assay, the call recorded for CCNC(=O)O[C@H]1CN[C@H](C#Cc2cc3ncnc(Nc4ccc(OCc5cccc(F)c5)c(Cl)c4)c3s2)C1 was what? false

In this assay, the call recorded for C#CCOc1cccc(Nc2ncnc3cc(NC(=O)CCl)ccc23)c1 was what? false

In this assay, the call recorded for COc1cc2c(cc1OCCCC(=O)Nc1ccc3ccc4cccc5ccc1c3c45)N=C[C@@H]1CCCN1C2=O was what? true

In this assay, the call recorded for O=c1c(-c2ccccc2)coc2cc(OC/C(=N/O)c3ccccc3)ccc12 was what? false

In this assay, the call recorded for CCN(CC)c1ccc(C(=O)c2ccc(N(CC)CC)cc2)cc1 was what? false

In this assay, the call recorded for CCCCCCCc1cc2c3c(nc4ccccc42)C(=O)c2cccnc2-c3n1 was what? false

In this assay, the call recorded for COC(=O)CC[C@H](Cc1ccccc1)NC(=O)c1csc([C@@H](C[C@H](C(C)C)N(C)C(=O)[C@@H](NC(=O)[C@H]2CCCCN2C)C(C)C)OC(C)=O)n1 was what? true

In this assay, the call recorded for O=C1C(=O)c2cccnc2-c2ncccc21 was what? true

In this assay, the call recorded for COc1cc(-c2nc(SCCC(C)C)nc(Nc3ccc(S(N)(=O)=O)cc3)c2C#N)cc(OC)c1OC was what? false

====

Tested on: SNB-75 CNS
Test: NCI tumour cell line growth inhibition, 48 h
*1 amine or outer side, *2 acyl side, *3 side chain or, on linkers, in order; H or OH if unused. Where a SMILES comes first, the peptide text is derived from it. [ ]: non-standard residue; d: D form. X32 = C[C@H](N[*:1])C(=O)C(C)(C)C(=O)[*:2]; Hmpa(2S,3S) = CC[C@H](C)[C@H](O)C(=O)O; NMeY = CN[C@@H](Cc1ccc(O)cc1)C(=O)O; NMeL = CN[C@@H](CC(C)C)C(=O)O; NMeV = CN[C@H](C(=O)O)C(C)C; βAla = NCCC(=O)O
Task for the reader: assign each of the following molecules its reported TGI.

Give SNB-75 CNS TGI for CC[C@H](C)[C@@H]1OC(=O)CCNC(=O)[C@@H](C)NC(=O)C(C)(C)C(=O)[C@H](C)NC(=O)[C@H](Cc2ccc(OC)cc2)N(C)C(=O)[C@H](C(C)C)N(C)C(=O)CNC(=O)[C@H](CC(C)C)N(C)C(=O)CNC1=O (cyclo(G[NMeL]G[NMeV][NMeY](Me)[X32][dA][βAla][Hmpa(2S,3S)])) 3.52 µM

Give SNB-75 CNS TGI for O=C(Nc1nc(C23CC4CC(CC(C4)C2)C3)cs1)c1cc2ccccc2oc1=O > 100 µM

Give SNB-75 CNS TGI for COC(=O)/C=C/c1cc2c(cc1-c1c(C(=O)O)cc(OC)c(OC)c1OC)OCO2 > 10 µM

Give SNB-75 CNS TGI for COc1cc(Cc2nccc3cc(OC)c(OC)cc23)c(N=NN(C)C)cc1OC > 100 µM

Give SNB-75 CNS TGI for CCOC(=O)NC(Nc1ccc(C(=O)OCC)cc1)(C(F)(F)F)C(F)(F)F > 100 µM

Give SNB-75 CNS TGI for CCCCn1c2c(n(CCCC)c1=S)-c1c(n(CCCC)c(=S)n1CCCC)SSc1c(n(CCCC)c(=S)n1CCCC)-c1c(n(CCCC)c(=S)n1CCCC)SSc1c(n(CCCC)c(=S)n1CCCC)-c1c(n(CCCC)c(=S)n1CCCC)SS2 > 50 µM

// provenance: PubChem BioAssay (NCI)
